Entries and their MIC
# Test system: Salmonella enterica serovar Typhimurium SL1344
# conditions used: MHB
Counter-ions that a name gives are not always drawn.

>  <compound>
CCOC(=O)Nc1nc2ccccc2[nH]1

>  <result>
> 50 µM

$$$$
>  <compound>
O=C(CCCN1CCC(O)(c2ccc(Br)cc2)CC1)c1ccc(F)cc1

>  <result>
> 50 µM

$$$$

Provide the documented MIC with Salmonella enterica serovar Typhimurium SL1344 as the system for CO/N=C(\C(=O)N[C@@H]1C(=O)N2C(C(=O)O)=C(COC(C)=O)CS[C@H]12)c1csc(N)n1 [CEFOTAXIME SODIUM]
≤ 0.78 µM

Which MIC is reported with Salmonella enterica serovar Typhimurium SL1344 for this entry: CCOC(=O)C1=C(COCCN)NC(C)=C(C(=O)OC)C1c1ccccc1Cl (configuration not stated) [AMLODIPINE BESYLATE] ?
≤ 0.78 µM

Provide the documented MIC with Salmonella enterica serovar Typhimurium SL1344 as the system for CN1CCC(=C2c3ccccc3C=Cc3ccccc32)CC1 [CYPROHEPTADINE HYDROCHLORIDE]
> 50 µM

----------
# Tested on: Salmonella enterica serovar Typhimurium SL1344
# conditions used: MHB
Counter-ions that a name gives are not always drawn.
property: MIC

Use the examples below as a reference point.
>  <compound>
CN(C)[C@@H]1C(O)=C(C(N)=O)C(=O)[C@@]2(O)C(O)=C3C(=O)c4c(O)ccc(Cl)c4[C@@](C)(O)[C@H]3C[C@@H]12 [CHLORTETRACYCLINE HYDROCHLORIDE]

>  <MIC>
25 µM

$$$$
>  <compound>
CCCCCCNC(=O)n1cc(F)c(=O)[nH]c1=O

>  <MIC>
> 50 µM

$$$$
>  <compound>
CO/N=C(\C(=O)N[C@@H]1C(=O)N2C(C(=O)O)=C(CSC(=O)c3ccco3)CS[C@H]12)c1csc(N)n1 [CEFTIOFUR HYDROCHLORIDE]

>  <MIC>
≤ 0.78 µM

$$$$
>  <compound>
C/C(=C\C(=O)OCCCCCCCCC(=O)O)C[C@@H]1OC[C@H](C[C@@H]2O[C@H]2[C@@H](C)[C@H](C)O)[C@@H](O)[C@H]1O

>  <MIC>
> 50 µM

$$$$
>  <compound>
C[C@@H]1CN(c2c(F)c(N)c3c(=O)c(C(=O)O)cn(C4CC4)c3c2F)C[C@H](C)N1

>  <MIC>
≤ 0.78 µM

$$$$
>  <compound>
C=CC1=C(C(=O)O)N2C(=O)[C@@H](NC(=O)/C(=N\O)c3csc(N)n3)[C@H]2SC1

>  <MIC>
≤ 0.78 µM

$$$$
>  <compound>
CO/N=C(\C(=O)N[C@@H]1C(=O)N2C(C(=O)OCOC(=O)C(C)(C)C)=C(/C=C\c3scnc3C)CS[C@H]12)c1csc(N)n1

>  <MIC>
50 µM

$$$$
>  <compound>
CCn1cc(C(=O)O)c(=O)c2cc(F)c(N3CCN(C)CC3)cc21 [PEFLOXACINE MESYLATE]

>  <MIC>
≤ 0.78 µM

$$$$
>  <compound>
O=c1[nH]cc(F)c(=O)[nH]1

>  <MIC>
> 50 µM

$$$$
>  <compound>
CCN(CC)C(C)CN1c2ccccc2Sc2ccccc21 (stereo not given) [ETHOPROPAZINE HYDROCHLORIDE]

>  <MIC>
> 50 µM

$$$$

Request the reported MIC associated with `O=C(CCCN1CCC2(CC1)C(=O)NCN2c1ccccc1)c1ccc(F)cc1`
> 50 µM

Need MIC of CCn1cc(C(=O)O)c(=O)c2cc(F)c(N3CCNC(C)C3)c(F)c21 (stereo not given) [LOMEFLOXACIN HYDROCHLORIDE] , thanks.
≤ 0.78 µM

Entry `CO[C@H]1O[C@@H]2O[C@@]3(C)CC[C@H]4[C@H](C)CC[C@@H]([C@H]1C)[C@@]24OO3` : reported MIC = ?
> 50 µM

If you can, please state the reported MIC value of `C[C@H]1COc2c(N3CCN(C)CC3)c(F)cc3c(=O)c(C(=O)O)cn1c23` .
≤ 0.78 µM

So what does the record say about MIC for `CC(C)(O/N=C(\C(=O)N[C@@H]1C(=O)N2C(C(=O)[O-])=C(C[n+]3ccccc3)CS[C@H]12)c1csc(N)n1)C(=O)O` ?
12.5 µM

----------
# Test system: Salmonella enterica serovar Typhimurium SL1344
# conditions used: LPM pH 5.8
Counter-ions that a name gives are not always drawn.
property: MIC

>  <compound>
C=CC1=C(C(=O)O)N2C(=O)[C@@H](NC(=O)/C(=N\O)c3csc(N)n3)[C@H]2SC1

>  <assay target>
Salmonella enterica serovar Typhimurium SL1344

>  <result>
≤ 0.78 µM

$$$$
>  <compound>
CO[C@@]1(NC(=O)C2SC(=C(C(N)=O)C(=O)O)S2)C(=O)N2C(C(=O)O)=C(CSc3nnnn3C)CS[C@@H]21 (stereo partly drawn)

>  <assay target>
Salmonella enterica serovar Typhimurium SL1344

>  <result>
≤ 0.78 µM

$$$$
>  <compound>
Oc1c(I)cc(Cl)c2cccnc12

>  <assay target>
Salmonella enterica serovar Typhimurium SL1344

>  <result>
≤ 0.78 µM

$$$$
>  <compound>
Cc1nc2ccccc2n1Cc1ccc(Cl)cc1

>  <assay target>
Salmonella enterica serovar Typhimurium SL1344

>  <result>
> 50 µM

$$$$
>  <compound>
CCOC(=O)C1=C(COCCN)NC(C)=C(C(=O)OC)C1c1ccccc1Cl (stereo not drawn) [AMLODIPINE BESYLATE]

>  <assay target>
Salmonella enterica serovar Typhimurium SL1344

>  <result>
≤ 0.78 µM

$$$$

// returns reported MIC for input `COc1ccc2cc1Oc1ccc(cc1)C[C@H]1c3c(cc4c(c3Oc3cc5c(cc3OC)CCN(C)[C@@H]5C2)OCO4)CCN1C`
> 50 µM

Need MIC of `CCn1cc(C(=O)O)c(=O)c2ccc(C)nc21` , thanks.
≤ 0.78 µM

What MIC value was documented for this compound, CN(C)c1ccc(O)c2c1C[C@H]1C[C@H]3[C@H](N(C)C)C(O)=C(C(N)=O)C(=O)[C@@]3(O)C(O)=C1C2=O [MINOCYCLINE HYDROCHLORIDE] ?
≤ 0.78 µM

----------
Known MIC of a selection of molecules
# Tested on: Salmonella enterica serovar Typhimurium SL1344
# conditions used: LPM pH 5.8
Where a name gives a salt, the structure may show the parent alone.

>  <molecule>
C[C@@H]1CN(c2c(F)c(N)c3c(=O)c(C(=O)O)cn(C4CC4)c3c2F)C[C@H](C)N1 [SPARFLOXACIN]

>  <MIC>
≤ 0.78 µM

$$$$
>  <molecule>
CCCCCCNC(=O)n1cc(F)c(=O)[nH]c1=O [CARMOFUR]

>  <MIC>
≤ 0.78 µM

$$$$
>  <molecule>
NC1CCN(c2c(F)cc3c(=O)c(C(=O)O)cn(C4CC4)c3c2Cl)C1 (stereo unspecified) [CLINAFOXACIN HYDROCHLORIDE]

>  <MIC>
≤ 0.78 µM

$$$$
>  <molecule>
C[C@H]1C[C@@H]2[C@H]([C@@H](O)C[C@@]3(C)[C@H]2CC[C@]3(O)C(=O)CO)[C@@]2(C)C=CC(=O)C=C12 [METHYLPREDNISOLONE]

>  <MIC>
> 50 µM

$$$$
>  <molecule>
Nc1ccncc1 [FAMPRIDINE]

>  <MIC>
> 50 µM

$$$$

Find the recorded MIC belonging to CC[C@H]1OC(=O)[C@H](C)[C@@H](O[C@H]2C[C@@](C)(OC)[C@@H](O)[C@H](C)O2)[C@H](C)[C@@H](O[C@@H]2O[C@H](C)C[C@H](N(C)C)[C@H]2O)[C@](C)(O)C[C@@H](C)CN(C)[C@H](C)[C@@H](O)[C@]1(C)O [AZITHROMYCIN] and report it.
≤ 0.78 µM

----------
# System: Salmonella enterica serovar Typhimurium SL1344
# run description: intracellular MIC (10-fold luminescence reduction); higher = less potent
# conditions used: RAW264.7 macrophages
Structures can show the parent of a compound that is named as a salt.
property: intracellular MIC (µM)

// below: answered molecules
>  <molecule>
COc1ccc(C(=O)c2ccccc2)c(O)c1

>  <number>
1.56

$$$$
>  <molecule>
CO[C@]12C[C@@H](COC(=O)c3cncc(Br)c3)CN(C)[C@@H]1Cc1cn(C)c3cccc2c13

>  <number>
25

$$$$

A = CCN1CCN(C(=O)N[C@@H](C(=O)N[C@@H]2C(=O)N3[C@@H]2SC(C)(C)[C@@H]3C(=O)O)c2ccccc2)C(=O)C1=O [PIPERACILLIN SODIUM]
B = NCc1ccc(S(N)(=O)=O)cc1 [MAFENIDE HYDROCHLORIDE]
C = CN(C)c1ccc(O)c2c1C[C@H]1C[C@H]3[C@H](N(C)C)C(O)=C(C(N)=O)C(=O)[C@@]3(O)C(O)=C1C2=O [MINOCYCLINE HYDROCHLORIDE]
Provide the items ranked by increasing intracellular MIC. Would you mind listing the labels in the order requested?
B, A, C
